Tested on: HsNMT
Assay type: biochemical, human
TEST_PARAMETERS: selectivity
QUANTITY_NAME: S = IC50 HsNMT/EC50 T. brucei

# Cc1nn(C)c(C)c1N(C(F)F)S(=O)(=O)c1c(Cl)cc(CCCOC[C@@H]2CCCCN2)cc1Cl with HsNMT: S = IC50 HsNMT/EC50 T. brucei is 10

// returns S = IC50 HsNMT/EC50 T. brucei for Cc1nn(C)c(C)c1N(C(F)F)S(=O)(=O)c1c(Cl)cc(CCCCCCN(C)C(C)C)cc1Cl with HsNMT; value = 5

Short answer on HsNMT for CCN(CC)CCCCCCc1cc(Cl)c(S(=O)(=O)N(c2c(C)nn(C)c2C)C(F)F)c(Cl)c1 , S = IC50 HsNMT/EC50 T. brucei: 3

Param item: Cc1nn(C)c(C)c1N(C(F)F)S(=O)(=O)c1c(Cl)cc(CCCOC2CC(C)(C)N(C)C(C)(C)C2)cc1Cl ; param system: HsNMT; output S = IC50 HsNMT/EC50 T. brucei: 27

Lab note: compound Cc1nn(C)c(C)c1NS(=O)(=O)c1ccc(-c2ccnc(N3CCNC(c4ccccc4)C3)c2)cc1 (centres unmarked) tested on HsNMT; recorded S = IC50 HsNMT/EC50 T. brucei was < 1

# Cc1nn(C)c(C)c1NS(=O)(=O)c1ccc(-c2ccnc(N3CCNC(Cc4ccccc4)C3)c2)cc1 (centres unmarked) with HsNMT: S = IC50 HsNMT/EC50 T. brucei is < 1

Entry Cc1nn(C)c(C)c1N(C(F)F)S(=O)(=O)c1c(Cl)cc(CCCOC2CCC(N(C)C)CC2)cc1Cl (centres unmarked) under HsNMT had S = IC50 HsNMT/EC50 T. brucei of 2

Form: item Cc1nn(C)c(C)c1N(C(F)F)S(=O)(=O)c1c(Cl)cc(CCCOC[C@H]2CCCCN2)cc1Cl ; test system HsNMT; S = IC50 HsNMT/EC50 T. brucei: 7

Where these numbers come from: paper PMC4269550
